Tested on: PPARg:RXRa (NR concentration 180 nM, RXRa partner concentration 90 nM)
ASSAY_PROCEDURE: PBM binding z-score (relative to random genomic background probes); higher = stronger binding; sequences stand for … in GC…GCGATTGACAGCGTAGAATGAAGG
Reported PBM binding z-score is given for each of the following sequences.
ENDPOINT_NAME: PBM binding z-score

AGAACGAGGGCACGCTGAGTTGATACCAGAGTAG = 2.2
TTGCCAAGGTGAGCTGAGGTCGTTGATCCAACTC = -0.358
ATCTCGAGGTAACCAAGTTCAGTGAATGCCGAAC = 0.211
GGAACGAGGGTATTCGAGTTGATAGCATGGCGAT = 0.371
TCTTGTAGATTAATAGAGGTTAAGAAAGTGCGCT = 0.283
CCTAGCAGGCCAAACTGGGTCACTCAAGGCTTGA = 1.74
CCTACTGGGCCATGGTCATTGATCAGTCAAAGCA = 1.05
CGAACTAGGTCATTGACAGCACAGTGAATAGTAA = 7.32
CCCACTGGGGCAAGGTTACCATAACGCACAGCCA = 4.81
CCAGACAGGTGAAAGGTAACTCAATCTGGTACGC = 5.5
CGTCAAATTTCAACTAAGGTAACGTAAAGCACGC = 0.633
CCTTACGGGTCCCGAGGTTATAGCACGACGAGCG = 0.635
GCATATAGGTAATACCAGGTGAAAGTCCGATTGT = 1.13
TCTTGTAGATCAACAGGAGGTTAAGAAAGATCGA = -0.0134
ATCTCTAGGTAAAAGTTCAGTTAATCCCGAGGAT = 8.35
CCTAACGGGTCACTCCAGGTTATAGCATCGGAGT = 2.32
TTACCAAGGTGGAAGGTCGTTGATGCACGCCTTG = 2.43
CAAACTAGGTCACCGGACGGTCAAAGTCCGCATG = 9.09
GCTGCTAGGTCAGGTTAGTCAGCTAACGGGTACG = 0.774
CCTGCTAGGACATGGTCAGCTAATCTACAGTATG = 0.246
CAGCCTAGGACAGGGCCAGTATAGGAGGAACGTT = 0.36
CGAACTAGGTCAAAGACAGTGAATCTCCGCACGC = 7.47
CGAACTAGGTCATCCAGGACAGGGAATACATTGA = 7.8
ACTATTAGTTGAGACGAGGGCCACCGATAGGTTG = 0.594

====

Tested on: PPARg DBDmut:RXRa IVT, anti-PPARg (DBD mutation: PPARg1 K132A/R137A, NR concentration 270 nM, RXRa partner concentration 90 nM)
ASSAY_PROCEDURE: PBM binding z-score (relative to random genomic background probes); higher = stronger binding; sequences stand for … in GC…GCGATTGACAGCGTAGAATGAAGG
Rule: PBM binding z-score under 0.8 gives not fulfilled, otherwise fulfilled.

GTACCAAGGTCAATAGGTCGTTGATGAGTAGGCG = not fulfilled
TAGCCTAGGTCATGGGCAAGTATACCACGCGAAC = not fulfilled
CCGACTGGGGCAAACGTTACCATACTCAGTACGA = not fulfilled
CGAACTAGGTCATTGACAGGACAGCGAATAGTAA = fulfilled
TCTTGTAGATCAACAGGAGGTTAAGATAGATCGA = fulfilled
CCAGACAGGTCAGAAGGTAACTCAGCCTCGATTA = not fulfilled
TAGCCTAGGTCATTCAGGGGCCGGTATAGAAAGC = not fulfilled
TGTCAAGGTTCAAAGGTAACGTAAGTATCCACAC = not fulfilled
ATCGAAGGGTCGTGAGGTGAGTATACAGAAAGGC = fulfilled
ATCTCTATGTAAAAGTTCAGTGAATCCCGAGGAT = fulfilled
TCATCTAGGTAAATGCTAGGTGAAAGTCCGATCT = fulfilled
CCTAATGGGCCATCAGGTCATTGATATCAACGTT = not fulfilled
CATAAAGGGTCAGCTAGGCCAGAGTAGGGACGGC = not fulfilled
ACTAGCAGGCCAACGGTCACTCAAGATTAGTCCG = not fulfilled

====

Tested on: LXRb:RXRa (NR concentration 270 nM, RXRa partner concentration 90 nM)
ASSAY_PROCEDURE: PBM binding z-score (relative to random genomic background probes); higher = stronger binding; sequences stand for … in GC…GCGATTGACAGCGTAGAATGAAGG
Item-by-item account of PBM binding z-score
ENDPOINT_NAME: PBM binding z-score

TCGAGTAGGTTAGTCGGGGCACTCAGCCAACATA = 0.402
TCATATAGGTAAATTCTAGGTGAAAGTCCGATCT = 0.797
ACTAGTTGGTCAGCTAAGGTCACACACAATTCGG = 3.35
TAGCCTAGGTCATGGGCCACTATACCACGCGAAC = 2.81
CACACTAGGTCACCGGAAGGTCAAAGTCCGCATG = 5.72
CCGAGTAGGCTATGGGGCATTCAGGCAACGGTGA = -0.799
TAGCCTAGGTCTTGCGGGCCAGTATAGTGTCGGC = -1.17
CCCGCTAGGTCAATGGTCAGCTAAAGCAGCTCGC = 1.61
ATCTCTAGTTAAGACTCAGTTCAGTGAAGAACGC = 0.459
TCATCTAGGTAAAAGGTGAAAGTCGGTGTGGTAA = 1.97
CCAGACAGGTGAGAAGGTAACTCAACCTCGATTA = 0.347
CTTTACGGGTCACGAGGTTATAGCACGACGAGCG = 4.38
CCTTGCGGGTCACTCCAGGTTATAGCATCGGAGT = 4.85
CCTAGTTGGTCAGGAGGTGACACACCGGATATGA = 0.214

====

Tested on: PPARa:RXRa (NR concentration 270 nM, RXRa partner concentration 90 nM)
ASSAY_PROCEDURE: PBM binding z-score (relative to random genomic background probes); higher = stronger binding; sequences stand for … in GC…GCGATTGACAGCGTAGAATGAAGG
Classification by PBM binding z-score | ranges: low bracket = under 2, middle bracket = from 2 up to 5, high bracket = 5 and over

CGTCCAAGGTCATAGGACGTCAGTGAAGACAGAT = high bracket
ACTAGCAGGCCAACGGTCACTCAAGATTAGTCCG = low bracket
CCTCGGAGGACAACAGGAGGTTAGAGCTGCCAGA = low bracket
GTACCAAGGTGAATATGTCGTTGATGAGTAGGCG = low bracket
AGAACGAGGGCACGCTCAGTTGATAGCAGAGTAG = middle bracket
CGTCAAAGTTTAAGGTAACGTAACAGAAAGCAGC = low bracket
ACAGACAGGTGATAAAGGTAACTCAGGCTATCAT = low bracket
ATATGAAGGTTAAGGGTCATTCAGGTTGGTTCGC = high bracket
TCTTGTAGATCAATAGAGGTTAAGCAAGTGCGCT = middle bracket
CGTGCAAGGTCAAGGTCAGTGAAAGAGACTCGAA = high bracket
ATATGTAGTTTAGCTGGGGTCATTCAGACTAGGC = middle bracket
CAAACTCGGTCAAGGTCAAAGTCGGTTTGTGCCA = middle bracket
AGAATGAGGGCACGCTGAGTTGATAGCAGAGTAG = middle bracket
CCTTACCGGTCACGAGGTTATAGCACGACGAGCG = middle bracket
TCATATAGGTAAAAGGTGAAAGGCGGTGTGGTAA = high bracket
CGTCAAAGTTCAACGAAGGTAACGTAAAGCACGC = middle bracket
CCAGACAGGTGAAACGTAACTCAGTCTGGTACGC = low bracket
ATCTCTAGGTAACAACTTCAGTGAAAGAGAGGAC = low bracket
CCGACTGGGGCAAAGATTACCATACTCAGTACGA = low bracket
ATCTCTAGGTAAAAGTTCAGTGACTCCCGAGGAT = middle bracket
ATCTCTAGGTAAGACTCAGTTCGGTGAAGAACGC = low bracket
CGTACAAGGTCAGCAGGTCAGTGAAAGCGACGTG = high bracket
CAAACTAGGTCACAGAGGTCAGAGTCCGTGCGTA = high bracket
ACTAGTTGGTCAGCTGAGGTCACACATAATTCGG = middle bracket
CGTCCAAGGTCATAGGAGGTCAGGGAAGACAGAT = high bracket
TCATATAGGTAATACAGGTGATAGTCGGCATCTA = low bracket
CGTACTGGGCCATCAGGTCATTGATATCAACGTT = middle bracket
ATCTCTAGGTAAGACTCAGTTCAGAGAAGAACGC = low bracket
GCTAGCAGGCCATTGGGGTCACTCAATGACGGGC = middle bracket
TCTTGTAGATCAATAGATGTTAAGAAAGTGCGCT = low bracket
GTACCAAGGTGATTAGGTCGTTGATGAGTAGGCG = low bracket
AATACAGGGTCACTAGGCCAGAGCAGGTACGAAT = high bracket
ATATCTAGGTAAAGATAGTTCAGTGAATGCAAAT = middle bracket
ACTATTATTTGAGACGAGGGCAACCGATAGGTTG = low bracket
AGAATGAGGTTATACGTAAATCAGGGAAGAAAGT = middle bracket
CTCGAAAGGTCGTGTTCAGGTGAGTATACCAAAC = middle bracket
